All figures here come from ChEMBL document CHEMBL1153549.

assay-notes: Tmax in healthy human at 10 mg/kg, iv once daily for 3 days measured at 24 after start of infusion
Assay type: ADME, organism-based
Design: dose 10 mg/kg, route intravenous
protocol-conditions: in vivo
quantity: Tmax

IN: Look up and state reported Tmax for "CCCCCCCCCCNCCN[C@@]1(C)C[C@H](O[C@H]2[C@H](Oc3c4cc5cc3Oc3ccc(cc3Cl)[C@@H](O)[C@@H](NC(=O)[C@@H](CC(C)C)NC)C(=O)N[C@@H](CC(N)=O)C(=O)N[C@H]5C(=O)N[C@H]3C(=O)N[C@H](C(=O)N[C@H](C(=O)O)c5cc(O)c(CNCP(=O)(O)O)c(O)c5-c5cc3ccc5O)[C@H](O)c3ccc(c(Cl)c3)O4)O[C@H](CO)[C@@H](O)[C@@H]2O)O[C@@H](C)[C@H]1O"
OUT: 1 h
